Experiment: Human HepG2 cell viability assay in 384 well format
Type: toxicity, cell-based
Design: dose 125 nL, time 70.5 hour; concentration not given beside the values
Details: HepG2 cells, read-out: Inhibition
value.kind: cytotoxicity at 70.5 h (%)
Supply the numeric figure in %, leaving out any unit text.

INSERT INTO assay_data (compound, value_kind, unit_tag, assay_result) VALUES
  ('COc1cccc(COCC(=O)NC(C)c2nnc3n2CCC3)c1 (centres undefined)', 'cytotoxicity at 70.5 h', '%', 1.6),
  ('Cc1cccc(-c2noc(CN3CCCC(Cn4cncn4)C3)n2)c1 (centres undefined)', 'cytotoxicity at 70.5 h', '%', 35.6),
  ('Cc1cc(C)n(C(=O)Cn2nc(C)c(I)c2C)n1', 'cytotoxicity at 70.5 h', '%', -7.22),
  ('CCC(=O)Nc1cccc(OCC(=O)N(C)Cc2nccn2CC)c1', 'cytotoxicity at 70.5 h', '%', -2.37),
  ('Cc1nc(-c2cnn(C)c2)sc1C(=O)NCc1ccc(C)n1C', 'cytotoxicity at 70.5 h', '%', -2.82);

Prompt line: Suppose we examine the compound CN1CCCC(Cc2cncc(C(=O)NCC3CC3)c2)C1 (centres undefined) ; what cytotoxicity at 70.5 h value has been reported?
Response line: -1.13

Prompt line: Suppose we examine the compound `O=C(NCC1CCC1)c1cccc(CN2CCS(=O)(=O)CC2)c1` ; what cytotoxicity at 70.5 h value has been reported?
Response line: -16.2

Prompt line: Suppose we examine the compound `COc1c(F)cc(-c2cn(CCn3c(C)cc(C)nc3=O)nn2)cc1Cl` ; what cytotoxicity at 70.5 h value has been reported?
Response line: -2.6

Prompt line: Suppose we examine the compound `Fc1ccc(CNCc2cc(Br)c3c(c2)OCO3)cc1` ; what cytotoxicity at 70.5 h value has been reported?
Response line: 7.59

Prompt line: Suppose we examine the compound Cc1cc(C)nc(N2CCCC(Cn3cc(CN(C)C)nn3)C2)n1 (centres undefined) ; what cytotoxicity at 70.5 h value has been reported?
Response line: -6.18

Prompt line: Suppose we examine the compound `c1csc(CN2CCC3(CC2)COCCN3CC2CC2)n1` ; what cytotoxicity at 70.5 h value has been reported?
Response line: -10.1

###

Catalogue of cytotoxicity at 70.5 h values
Assay: Human HepG2 cell viability assay in 384 well format
Assay type: toxicity, cell-based
Set-up: dose 125 nL, time 70.5 hour; concentration not given beside the values
Details: HepG2 cells, read-out: Inhibition
Supply the numeric figure in %, leaving out any unit text.

INSERT INTO assay_data (compound, value_kind, assay_result) VALUES
  ('CCc1c(C)[nH]c(C(C)(N)CC)nc1=O (stereo unspecified)', 'cytotoxicity at 70.5 h', -10.4);

Prompt line: Suppose we examine the compound CCCC(=O)N1CCCCC1c1nccc(C)n1 (stereo unspecified) ; what cytotoxicity at 70.5 h value has been reported?
Response line: 8.32

Prompt line: Suppose we examine the compound `CS(=O)(=O)NCc1ncn2c1CN(C(=O)CC1CCCC1)CCC2` ; what cytotoxicity at 70.5 h value has been reported?
Response line: -5.42

Prompt line: Suppose we examine the compound `CN1C[C@@H](C(=O)N2CCOCC2)[C@@]2(CCc3ccccc3C(=O)N2)C1` ; what cytotoxicity at 70.5 h value has been reported?
Response line: -1.75

Prompt line: Suppose we examine the compound CCN(Cc1cc(F)ccc1Cl)C1CCS(=O)(=O)C1 (stereo unspecified) ; what cytotoxicity at 70.5 h value has been reported?
Response line: 29.9

Prompt line: Suppose we examine the compound NC(=O)C1CCCN(Cc2c(-c3ccco3)[nH]c3ncccc23)C1 (stereo unspecified) ; what cytotoxicity at 70.5 h value has been reported?
Response line: -10.6

###

Catalogue of cytotoxicity at 70.5 h values
Test: Human HepG2 cell viability assay in 384 well format
Assay type: toxicity, cell-based
Parameters: dose 125 nL, time 70.5 hour; concentration not given beside the values
Conditions: HepG2 cells, read-out: Inhibition

INSERT INTO assay_data (compound, value_kind, assay_result) VALUES
  ('COc1ccc(CC(=O)NCCn2nc3ccccn3c2=O)cc1', 'cytotoxicity at 70.5 h', '12.9%'),
  ('CCCC(=O)NCC(=O)NC1CC(C)(C)Cc2oc(C)cc21 (stereo unspecified)', 'cytotoxicity at 70.5 h', '-5.41%'),
  ('Cc1ccccc1C(C(=O)N(C)CCc1cnn(C)c1)N(C)C (stereo unspecified)', 'cytotoxicity at 70.5 h', '-0.295%'),
  ('O=C(C1CC(=O)N(c2ccccc2Br)C1)N1CCCCCC1 (stereo unspecified)', 'cytotoxicity at 70.5 h', '11.2%'),
  ('CC(NC(=O)C1CCCC1)c1nc(-c2ccccc2)c[nH]1 (stereo unspecified)', 'cytotoxicity at 70.5 h', '1.26%');

# evaluate next
Prompt line: Suppose we examine the compound `O=C(NCCNc1ccccn1)N1CCC(O)CC1` ; what cytotoxicity at 70.5 h value has been reported?
Response line: 3.99%

###

Experiment: Human HepG2 cell viability assay in 384 well format
Format: toxicity, cell-based
Parameters: dose 125 nL, time 70.5 hour; concentration not given beside the values
Conditions: HepG2 cells, read-out: Inhibition
value.kind: cytotoxicity at 70.5 h (%)
Supply the numeric figure in %, leaving out any unit text.

Observe how each entry below is paired with its result.
INSERT INTO measurements (compound, value_kind, assay_result) VALUES
  ('c1ccc(OC[C@@H]2CCC[C@@]23CNCCO3)nc1', 'cytotoxicity at 70.5 h', 10.8),
  ('CCN(CCO)C[C@@H]1CN(c2cccc(C(F)(F)F)n2)C[C@@H]1CO', 'cytotoxicity at 70.5 h', -11.5),
  ('CC1CCCN(C(=O)c2cn(-c3ccc(C(F)(F)F)cn3)nn2)C1 (configuration not stated)', 'cytotoxicity at 70.5 h', 12.2),
  ('CNC(=O)[C@H]1C[C@@H]2CN(S(=O)(=O)c3ccc(C)c(F)c3)C[C@@H]2N1C', 'cytotoxicity at 70.5 h', -3.95),
  ('CC(C)NC(=O)Cn1cc(-c2ccccc2)cn1', 'cytotoxicity at 70.5 h', 1.95),
  ('CC(C)c1cc(C(=O)NCc2nc(-c3ccc(F)cc3)n[nH]2)n[nH]1', 'cytotoxicity at 70.5 h', 12.6),
  ('Cc1cnccc1-c1cnn(CCNC(=O)C(C)(C)C)c1C1CC1', 'cytotoxicity at 70.5 h', -9.87),
  ('O=C(NCCn1cccc1)C1CCN(C2CCCCC2)CC1', 'cytotoxicity at 70.5 h', -13.6),
  ('O=C(C[C@@H]1COC[C@H]2CN(Cc3ccncc3)C[C@@H]12)N1CCCC1', 'cytotoxicity at 70.5 h', 11.8),
  ('NC(=O)C1CN(C(=O)Nc2cc(Cl)cc(Cl)c2)CCO1 (configuration not stated)', 'cytotoxicity at 70.5 h', -3.67);

Prompt line: Suppose we examine the compound `NC(=O)c1cnc(NCC(=O)NCc2ccco2)c(Cl)c1` ; what cytotoxicity at 70.5 h value has been reported?
Response line: -9.01

Prompt line: Suppose we examine the compound Cc1cc(=O)c2ccccc2n1CC1CCNC1 (configuration not stated) ; what cytotoxicity at 70.5 h value has been reported?
Response line: -1.77

Prompt line: Suppose we examine the compound COc1cc(CNCC(C)O)cc(Cl)c1OCc1ccc(C)cc1 (configuration not stated) ; what cytotoxicity at 70.5 h value has been reported?
Response line: 39

Prompt line: Suppose we examine the compound O=C(Nc1ccc(-n2cccn2)cc1)N1CCOCC(O)C1 (configuration not stated) ; what cytotoxicity at 70.5 h value has been reported?
Response line: -20.9

Prompt line: Suppose we examine the compound CCOC(C)c1nc(Cn2cccn2)cs1 (configuration not stated) ; what cytotoxicity at 70.5 h value has been reported?
Response line: -8.39

###

Assay: Human HepG2 cell viability assay in 384 well format
Assay type: toxicity, cell-based
Parameters: dose 125 nL, time 70.5 hour; concentration not given beside the values
Conditions: HepG2 cells, read-out: Inhibition
Catalogue of cytotoxicity at 70.5 h values
Supply the numeric figure in %, leaving out any unit text.

Observe how each entry below is paired with its result.
INSERT INTO results (compound, unit_tag, assay_result) VALUES
  ('Cc1nc(CN2C[C@@H]3CN(C(=O)NC(C)C)C[C@@H]3C2=O)cs1', '%', -5.1),
  ('Cc1nc(N2CCCC2)nc2c1CCN(C(=O)N1CCCC1)CC2', '%', -8.89),
  ('CNS(=O)(=O)c1cccc(CNC(=O)c2c(C)oc(C)c2C)c1', '%', 22.6),
  ('Cc1ccc(CN2CCC3(CC2)NC(=O)CC3c2ccncc2)cc1C (stereo unspecified)', '%', -3.31),
  ('Cc1cc(C)n(C2CCN(Cc3c(-c4cc(C)on4)nn(C)c3Cl)C2)n1 (stereo unspecified)', '%', -6.11),
  ('Cc1nc(C)c(-c2ccn(CC(=O)Nc3cnn(C)n3)n2)s1', '%', 8.07),
  ('Cc1nc(C)n(CC2CN(CCOc3ccccc3C#N)CCO2)n1 (stereo unspecified)', '%', -8.64),
  ('Cc1cccc(C(=O)NCc2ccc(N3CCCCC3)nc2)n1', '%', -3.76);

Prompt line: Suppose we examine the compound `Cn1cnnc1S(=O)(=O)C1CCN(S(=O)(=O)c2c(Cl)cccc2Cl)CC1` ; what cytotoxicity at 70.5 h value has been reported?
Response line: -8.23

Prompt line: Suppose we examine the compound Cc1cc(C(=O)NC2CCc3c(ccc(=O)n3CCN(C)C)C2)no1 (stereo unspecified) ; what cytotoxicity at 70.5 h value has been reported?
Response line: -3.71

Prompt line: Suppose we examine the compound COCCc1noc(CN(C)C(=O)C(C)N2CCc3ccccc3C2)n1 (stereo unspecified) ; what cytotoxicity at 70.5 h value has been reported?
Response line: -9.3
